# target entity: 5-HT3 receptor subtypes derived from N1E-115 cells (Mus musculus)
# Sequence (P23979 24-489): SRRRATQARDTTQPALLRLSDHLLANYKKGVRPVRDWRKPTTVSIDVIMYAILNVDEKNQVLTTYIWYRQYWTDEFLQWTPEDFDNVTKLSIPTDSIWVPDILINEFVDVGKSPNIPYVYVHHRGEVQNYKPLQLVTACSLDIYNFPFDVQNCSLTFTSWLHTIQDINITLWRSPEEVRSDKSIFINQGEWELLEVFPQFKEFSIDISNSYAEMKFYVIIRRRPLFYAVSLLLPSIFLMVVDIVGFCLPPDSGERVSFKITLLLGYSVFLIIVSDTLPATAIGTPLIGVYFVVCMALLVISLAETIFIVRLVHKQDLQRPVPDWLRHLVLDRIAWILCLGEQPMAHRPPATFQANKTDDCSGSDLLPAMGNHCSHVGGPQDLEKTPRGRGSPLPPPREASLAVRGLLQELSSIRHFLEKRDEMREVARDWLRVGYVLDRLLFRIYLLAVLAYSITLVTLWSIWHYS

[
  {
    "compound": "COc1cc(N)c(Cl)cc1C(=O)NC1CCNCC1OC (single isomer, unassigned; (+)) [(+) Norcisapride]",
    "target entity": "5-HT3 receptor subtypes derived from N1E-115 cells (Mus musculus)",
    "IC50": "4.5 nM"
  },
  {
    "compound": "COc1cc(N)c(Cl)cc1C(=O)NC1CCNCC1OC (racemic) [(±) Norcisapride]",
    "target entity": "5-HT3 receptor subtypes derived from N1E-115 cells (Mus musculus)",
    "IC50": "8.2 nM"
  },
  {
    "compound": "COc1cc(N)c(Cl)cc1C(=O)NC1CCNCC1OC (single isomer, unassigned; (-)) [(−) Norcisapride]",
    "target entity": "5-HT3 receptor subtypes derived from N1E-115 cells (Mus musculus)",
    "IC50": "30.4 nM"
  }
]

====

# target entity: 5-HT4 receptor subtypes derived from guinea-pig striata (Cavia porcellus, UniProt O70528)
# Sequence (O70528 whole entry): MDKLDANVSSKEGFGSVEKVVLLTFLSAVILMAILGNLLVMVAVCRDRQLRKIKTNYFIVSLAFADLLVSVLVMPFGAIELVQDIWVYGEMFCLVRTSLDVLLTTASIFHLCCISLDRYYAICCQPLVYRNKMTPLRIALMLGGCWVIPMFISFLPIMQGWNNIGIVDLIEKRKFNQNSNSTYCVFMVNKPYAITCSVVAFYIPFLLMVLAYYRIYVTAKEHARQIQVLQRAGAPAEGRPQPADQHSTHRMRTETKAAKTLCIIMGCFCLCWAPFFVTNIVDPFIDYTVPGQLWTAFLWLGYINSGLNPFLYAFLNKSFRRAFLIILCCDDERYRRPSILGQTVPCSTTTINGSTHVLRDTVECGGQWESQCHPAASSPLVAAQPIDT
# IC50 per entry

[
  {
    "molecule": "COc1cc(N)c(Cl)cc1C(=O)NC1CCNCC1OC (racemic) [(±) Norcisapride]",
    "IC50": "686 nM"
  },
  {
    "molecule": "COc1cc(N)c(Cl)cc1C(=O)NC1CCNCC1OC (single isomer, unassigned; (-)) [(−) Norcisapride]",
    "IC50": "1350 nM"
  },
  {
    "molecule": "COc1cc(N)c(Cl)cc1C(=O)NC1CCNCC1OC (single isomer, unassigned; (+)) [(+) Norcisapride]",
    "IC50": "331 nM"
  }
]
